Where do these numbers come from? They come from patent US10202418B2.

biological target: cathepsin D isolated from the human liver (Homo sapiens (Human), UniProt P07339); experiment: In-vitro fluorescence assay for identification of cathepsin D inhibitors; conditions: cathepsin D 1.4 nM, pH 5.5; values in E notation; read-out: Cath D IC50
Sequence (P07339 65-161): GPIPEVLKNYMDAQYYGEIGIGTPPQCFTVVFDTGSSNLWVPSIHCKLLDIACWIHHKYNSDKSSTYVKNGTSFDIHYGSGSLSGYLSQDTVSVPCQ
Sequence (P07339 169-412): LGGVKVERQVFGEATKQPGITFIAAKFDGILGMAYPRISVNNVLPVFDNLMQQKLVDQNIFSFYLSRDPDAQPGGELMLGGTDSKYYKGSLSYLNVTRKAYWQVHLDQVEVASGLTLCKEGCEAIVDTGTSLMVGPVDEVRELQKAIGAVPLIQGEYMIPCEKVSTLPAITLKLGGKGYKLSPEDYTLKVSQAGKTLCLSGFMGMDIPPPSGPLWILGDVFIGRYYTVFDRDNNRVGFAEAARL
Starred links: 1 amine or outer side, 2 acyl side, 3 side chain; linkers in the order of their positions; H or OH if unused. Non-standard residues stand in square brackets, D forms with d. Residues, ends and D or L forms follow the SMILES beside them. *: point of attachment. Hexanoyl(5S-NH,4S-OH,6-Ph) = O=C(CC[C@H](O)[C@H](Cc1ccccc1)N[*:1])[*:2]; Isovaleryl = CC(C)CC(=O)*; Boc = CC(C)(C)OC(=O)*
Rule for this label: satisfied means IC50 is less than 4000 nM; not satisfied means IC50 is at least 4000 nM.

compound: CC[C@H](C)[C@H](NC(=O)CC[C@H](O)[C@H](Cc1ccccc1)NC(=O)[C@@H](NC(=O)[C@H](CC(C)C)NC(=O)OC(C)(C)C)C(C)C)C(=O)N[C@H](C(=O)OC)C(C)C [Compound A2] (Boc-LV[Hexanoyl(5S-NH,4S-OH,6-Ph)]IV-OMe)
categoryLabel: satisfied
//
compound: CC[C@H](C)[C@H](NC(=O)CC[C@H](O)[C@H](Cc1ccccc1)NC(=O)[C@@H](NC(=O)Cc1cccc(OC(F)(F)F)c1)C(C)C)C(=O)N[C@H](C(=O)O)C(C)C
categoryLabel: satisfied
//
compound: COC(=O)[C@@H](NC(=O)[C@H](Cc1ccccc1)NC(=O)CC[C@H](O)[C@H](Cc1ccccc1)NC(=O)[C@@H](NC(=O)[C@H](CC(C)C)NC(=O)CC(C)C)C(C)C)C(C)C [Compound A17] (Isovaleryl-LV[Hexanoyl(5S-NH,4S-OH,6-Ph)]FV-OMe)
categoryLabel: satisfied
//
compound: CC(C)[C@H](NC(=O)C(c1ccccc1)c1ccccc1)C(=O)N[C@@H](Cc1ccccc1)[C@@H](O)CCC(=O)NCCc1ccccc1
categoryLabel: not satisfied

###

Biological target: cathepsin D isolated from the human liver (Homo sapiens (Human))
Assay: In-vitro fluorescence assay for identification of cathepsin D inhibitors
Settings: cathepsin D 1.4 nM, pH 5.5; values in E notation; read-out: Cath D IC50
Description: In order to identify modulators of cathepsin D activity, a continuous enzymatic test was carried out with a synthetic peptide which carries a fluorescent group (MCA=(7-methoxycoumarin-4-yl)acetyl) which is quenched by energy transfer from a Dpn (2,4 dinitrophenyl) group on the same molecule, in Greiner 384-well nb microtitre plates. Cleavage of the peptidic substrate by cathepsin D causes an increase in the fluorescence intensity. […]
Starred links: 1 amine or outer side, 2 acyl side, 3 side chain; linkers in the order of their positions; H or OH if unused. Non-standard residues stand in square brackets, D forms with d. Residues, ends and D or L forms follow the SMILES beside them. *: point of attachment. Hexanoyl(5S-NH,4S-OH,6-Ph) = O=C(CC[C@H](O)[C@H](Cc1ccccc1)N[*:1])[*:2]; Isovaleryl = CC(C)CC(=O)*

molecule: CC[C@H](C)[C@H](NC(=O)CC[C@H](O)[C@H](Cc1ccccc1)NC(=O)[C@@H](NC(=O)[C@H](CC(C)C)NC(=O)OC(C)(C)C)C(C)C)C(=O)NCc1cnc(C)nc1N
IC50: 430 nM
//
molecule: CC[C@H](C)[C@H](NC(=O)CC[C@H](O)[C@H](Cc1ccccc1)NC(=O)[C@@H](NC(=O)[C@H](CC(C)C)NC(=O)CC(C)C)C(C)C)C(=O)N[C@H](C(=O)O)C(C)C [Compound A21] (Isovaleryl-LV[Hexanoyl(5S-NH,4S-OH,6-Ph)]IV-OH)
IC50: 24 nM
//
molecule: CC(C)[C@H](NC(=O)Cc1cccc(Oc2ccccc2)c1)C(=O)N[C@@H](Cc1ccccc1)[C@@H](O)CCC(=O)NCCc1ccccc1
IC50: 12000 nM

###

Recorded measurements of IC50, one per entry
biological target: recombinant human renin (Homo sapiens (Human), UniProt P00797); assay: In-vitro fluorescence assay for identification of renin-inhibitory activity; format: biochemical; conditions: renin 10 nM, pH 7.2
Sequence (P00797 67-406): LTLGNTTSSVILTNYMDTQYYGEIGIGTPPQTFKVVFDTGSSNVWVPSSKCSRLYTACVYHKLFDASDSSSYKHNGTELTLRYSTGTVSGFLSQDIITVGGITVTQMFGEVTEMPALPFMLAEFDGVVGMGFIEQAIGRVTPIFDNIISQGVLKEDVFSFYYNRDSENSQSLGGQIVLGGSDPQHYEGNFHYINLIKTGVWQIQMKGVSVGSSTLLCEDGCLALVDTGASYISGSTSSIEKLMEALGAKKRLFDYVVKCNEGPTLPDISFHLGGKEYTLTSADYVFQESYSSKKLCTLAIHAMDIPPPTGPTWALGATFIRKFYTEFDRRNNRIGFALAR
Excerpt: […]

chemicalSmiles: Cc1ccc(OCC(=O)N[C@H](C(=O)N[C@@H](Cc2ccccc2)[C@@H](O)CCC(=O)NCCc2ccccc2)C(C)C)cc1C
IC50: > 30 µM
--
chemicalSmiles: CC[C@H](C)[C@H](NC(=O)CC[C@H](O)[C@H](Cc1ccccc1)NC(=O)[C@@H](NC(=O)Cc1cccc(OC(F)(F)F)c1)C(C)C)C(=O)N[C@H](C(=O)O)C(C)C
IC50: > 30 µM
--
chemicalSmiles: CC(C)[C@H](NC(=O)C(c1ccccc1)c1ccccc1)C(=O)N[C@@H](Cc1ccccc1)[C@@H](O)CCC(=O)NCCc1ccccc1
IC50: > 30 µM
